Origin of measurements: PubChem BioAssay AID2315

Assay Comment: A qHTS for Small Molecule Inhibitors of Shiga Toxin; note: 0% is about no effect
Experimental Context: Vero cells, Shiga toxin protein synthesis inhibition reporter; at 38.7 µM, stronger effect = higher value
Out of some 290,000 compounds screened, about 27,000 (9.3%) were called active. The full list was thinned out, with actives kept by preference. Where a SMILES comes first, the peptide text is derived from it. The star is where a group is joined. OPac = O=C(CO*)c1ccccc1; Bz = O=C(c1ccccc1)*
Measurement Type: inhibition (%)
Numeric answer only, unit % assumed.

{"Molecule": "Cc1ccc(N2C(=O)C3CC3C2=O)cc1 (centres undefined)", "Meas Value": 25.6}
{"Molecule": "O=C(CNC(=O)c1ccccc1)NCC(=O)OCC(=O)c1ccccc1 (Bz-Gly-Gly-OPac)", "Meas Value": -5.66}
{"Molecule": "OC(COc1ccc2ccccc2c1)Cn1cncn1 (centres undefined)", "Meas Value": 11}

So what does the record say about inhibition for CC1CN(C(=S)SCC(=O)c2ccccc2)CC(C)O1 (centres undefined) ?
94.2

Now try Cc1ccc(N2CCN(c3ccc(C)cc3)C2c2ccccn2)cc1 .
57.4

Now try CC1CN(C(=S)Nc2ccccc2F)CC(C)O1 (centres undefined) .
-12

Now try CCC(C(=O)NC1CCCCC1)N(C(=O)c1snc(C(N)=O)c1N)c1ccc(OC)cc1OC (centres undefined) .
16.5

Now try CCCN1CCn2c3c(c4cc(Br)ccc42)CCCC31 (centres undefined) .
31.7

Now try O=C(COC(=O)CNC(=O)c1ccccc1F)NCC(F)(F)F .
16.2

Now try COc1ccc(NC(=O)c2cc([N+](=O)[O-])ccc2NC(=O)CNC2CCCCC2C)c(OC)c1 (centres undefined) .
7.27

Now try CC(NS(=O)(=O)c1ccc(Br)cc1)C(=O)NCC1CCCO1 (centres undefined) .
25

Now try O=C(CSC(=S)N1CCCCC1)c1c(F)cccc1F .
61.7

Now try OC(CNCC1CCCO1)Cn1c2ccc(Br)cc2c2cc(Br)ccc21 (centres undefined) .
-17.6

Now try OC(COc1ccc2ccccc2c1)CN1CCOCC1 (centres undefined) .
26.8

Now try COC(=O)CNC(=O)c1ccccc1F .
-15.6

Now try Cc1ccc(OCCOc2cccc(/C=N/NC(N)=O)c2)cc1 .
56.6

Now try O=C(N/N=C/c1cccc(O)c1)c1cc2c(ccc3ccccc32)o1 .
6

Now try CCOc1ccc(C2/C(=C(/O)c3ccc4c(c3)CC(C)O4)C(=O)C(=O)N2CCCn2ccnc2)cc1 (centres undefined) .
14.2

Now try O=C(CP(=O)(c1ccccc1)c1ccccc1)N1CCOCC1 .
-5.31

Now try CC(=O)c1ccc(NC(=O)CSC(=S)N2CCCC2)cc1 .
-2.78

====

Assay Comment: A qHTS for Small Molecule Inhibitors of Shiga Toxin; note: 0% is about no effect
Experimental Context: Vero cells, Shiga toxin protein synthesis inhibition reporter; at 38.7 µM, stronger effect = higher value
Out of some 290,000 compounds screened, about 27,000 (9.3%) were called active. The sample as a whole holds a higher share of actives than the screen did.
Measurement Type: inhibition (%)
Numeric answer only, unit % assumed.

{"Mol Smiles": "CN(C(=O)COc1ccccc1)c1nnc(-c2ccncc2)s1", "inhibition, %": 3.11}
{"Mol Smiles": "O=C(NCCN1CCOCC1)c1ccc(/C=C2\\Sc3ccccc3N(Cc3ccc(F)cc3)C2=O)cc1", "inhibition, %": -4.17}
{"Mol Smiles": "Cc1cc2cc(CNC(=O)c3ccc(S(=O)(=O)N4CCOCC4)cc3)ccc2[nH]1", "inhibition, %": -6.18}
{"Mol Smiles": "COc1cc2ccccc2cc1C(=O)Nc1ccccc1C", "inhibition, %": 32.5}

So what does the record say about inhibition for COc1cc2ccccc2cc1C(=O)Nc1nc(C)c(C(C)=O)s1 ?
69.5

Now try COc1cc(OC)cc(-c2nnc(N(C)C(=O)c3ccncc3)s2)c1 .
-6.02
